Entry source: patent EP4682166A1

# TARGET ENTITY: T1, human NMI (N-myc Interacting protein) (human, UniProt Q13287 1-307, limits assumed)
# T1 construct: Immunogen and ELISA coating antigen; also called hNMI; antigen 1
# T1 sequence (looked up): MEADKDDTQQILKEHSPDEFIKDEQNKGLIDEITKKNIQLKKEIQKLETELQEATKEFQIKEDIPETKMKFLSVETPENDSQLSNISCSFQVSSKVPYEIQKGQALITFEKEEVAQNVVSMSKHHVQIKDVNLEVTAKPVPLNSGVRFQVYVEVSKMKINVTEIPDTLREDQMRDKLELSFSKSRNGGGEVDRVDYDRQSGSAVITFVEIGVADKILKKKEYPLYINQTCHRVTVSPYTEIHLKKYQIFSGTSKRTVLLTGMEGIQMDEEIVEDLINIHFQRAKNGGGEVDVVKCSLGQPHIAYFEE
# EXPERIMENTAL DETAILS: I-ELISA, hNMI coated 1 ug/mL; antibody 2.4414063 ng/mL
READOUT: OD450 (OD450)
Supply the numeric figure in OD450, leaving out any unit text.

98G10 (antibody, V domains shown, Rabbit monoclonal antibody; also called 98G10-1; 98G10-1-biotin (biotin-labelled form)) VH: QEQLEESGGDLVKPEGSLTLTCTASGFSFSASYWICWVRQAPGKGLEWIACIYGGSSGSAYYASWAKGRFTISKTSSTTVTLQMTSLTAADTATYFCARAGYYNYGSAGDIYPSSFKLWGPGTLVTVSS VL: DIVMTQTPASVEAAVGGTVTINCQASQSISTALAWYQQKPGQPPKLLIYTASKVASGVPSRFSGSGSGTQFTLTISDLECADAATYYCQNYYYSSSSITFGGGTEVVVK	0.081

Prompt: I am curious: what OD450 value has been reported for 94C4 (antibody, V domains shown, Rabbit monoclonal antibody; also called 94C4-1; 94C4-1-biotin (biotin-labelled form)) VH: QSLEESGGGLVQPEGSLTLTCKASGFDFSSNAMCWVRQAPGKGLEWIACISSASSGSSGSTYYASWAKGRFTISKTSSTTVTLQMTSLTAADMATYFCARDGYDLWGPGTLVTVSS VL: QVLTQTPSSVSAAVGGTVTISCQSSPSVYNNYLSWFQQKPGQSPKLLIYRVSTLASGVPSRFSGSGSGTQFTLTISGVQCDDAATYYCAGGYDSASDTYVFGGGTEVVVK ?
Completion: 0.142

Prompt: Look at this binder and give its reported OD450. 39B4 (antibody, V domains shown, Rabbit monoclonal antibody; also called 39B4-1; 39B4-1-biotin (biotin-labelled form)) VH: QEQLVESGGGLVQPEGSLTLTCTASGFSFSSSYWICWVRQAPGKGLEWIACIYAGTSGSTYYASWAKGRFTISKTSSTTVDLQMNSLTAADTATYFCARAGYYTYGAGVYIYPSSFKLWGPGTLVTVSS VL: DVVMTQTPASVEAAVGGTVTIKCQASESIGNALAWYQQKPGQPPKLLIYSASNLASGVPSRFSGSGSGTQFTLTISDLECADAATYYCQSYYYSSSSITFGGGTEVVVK
Completion: 0.099

Prompt: Form field: reported OD450 of B-8 (antibody, V domains shown, Rabbit monoclonal antibody; also called B8-1; B-8-biotin (biotin-labelled form)) VH: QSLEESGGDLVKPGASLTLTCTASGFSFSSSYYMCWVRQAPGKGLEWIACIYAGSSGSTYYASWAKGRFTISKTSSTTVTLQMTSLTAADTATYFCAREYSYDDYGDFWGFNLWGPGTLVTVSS VL: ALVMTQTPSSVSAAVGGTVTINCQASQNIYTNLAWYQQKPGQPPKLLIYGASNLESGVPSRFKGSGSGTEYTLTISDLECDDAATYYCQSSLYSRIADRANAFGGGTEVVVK
Completion: 0.099
